EC50 by entry:
Molecular target: GLP-1R (Homo sapiens)
Experiment: GLP-1R agonist cAMP stimulation assay (HTRF cAMP)
Conditions: HEK293 cell line expressing GLP-1 target; HTRF cAMP agonist mode, 30 min at RT
quantity_name: EC50 (nM)

>>> quantitative_readout("Cc1cc2c(Cl)ccc(COc3cccc(C4=CCN(Cc5nc6cc(C(=O)Nc7cc(C)c8[nH]nc(C(F)F)c8c7)ccc6n5C[C@@H]5CCO5)CC4)n3)c2o1 [Compound 349]")
1.61
>>> quantitative_readout("Cc1n[nH]c2ccc(NC(=O)c3ccc4c(c3)nc(CN3CC=C(c5cccc(OCc6c(F)cnc7ccccc67)n5)CC3)n4C[C@@H]3CCO3)cc12 [Compound 368]")
9.19
>>> quantitative_readout("O=C(Nc1cc(C(F)(F)F)c2[nH]nc(C3CC3)c2c1)c1ccc2c(c1)nc(CN1CC=C(c3cccc(OCc4ccc(Cl)cc4F)n3)CC1)n2C[C@@H]1CCO1 [Compound 163]")
0.99

====

Molecular target: GLP-1R (Homo sapiens)
Experiment: GLP-1R agonist cAMP stimulation assay (HTRF cAMP)
Settings: HEK293 cell line expressing GLP-1 target; HTRF cAMP agonist mode, 30 min at RT
Flag rule - EC50 less than 2 nM flags T; the remaining entries get F.

>>> label("N#Cc1ccc(COc2cccc(C3CCN(Cc4nc5cc(C(=O)Nc6ccc7[nH]nc(C(F)(F)F)c7c6)ccc5n4C[C@@H]4CCO4)CC3)n2)c(F)c1")
"T"
>>> label("Cc1n[nH]c2c(F)cc(C(=O)Nc3ccc4nc(CN5CC=C(c6cccc(OCc7ccc(Cl)cc7F)n6)CC5)n(CC5CCO5)c4c3)cc12 (stereo not drawn)")
"T"
>>> label("Cc1cc2c(C#N)ccc(COc3cccc(C4=CCN(Cc5nc6cc(C(=O)Nc7ccc8[nH]nc(C(F)(F)F)c8c7)ccc6n5C[C@@H]5CCO5)CC4)n3)c2o1")
"F"
>>> label("Cc1c(C#N)sc(COc2cccc(C3=CCN(Cc4nc5cc(NC(=O)c6ccc7[nH]nc(C)c7c6)ccc5n4C[C@@H]4CCO4)CC3)n2)c1F")
"T"
>>> label("O=C(Nc1ccc2[nH]nc(C(F)(F)F)c2c1)c1ccc2c(c1)nc(CN1CCC(c3cccc(OCc4ccc(Cl)cc4F)n3)CC1)n2C[C@@H]1CCO1")
"F"
>>> label("CCn1cncc1Cn1c(Cc2c(F)cc(-c3cccc(OCc4ccc(Cl)cc4F)n3)cc2F)nc2cc(NC(=O)c3cc(F)c4[nH]nc(C)c4c3)ccc21")
"T"

====

Target: GLP-1R (Homo sapiens, UniProt P43220)
Sequence (P43220 24-463): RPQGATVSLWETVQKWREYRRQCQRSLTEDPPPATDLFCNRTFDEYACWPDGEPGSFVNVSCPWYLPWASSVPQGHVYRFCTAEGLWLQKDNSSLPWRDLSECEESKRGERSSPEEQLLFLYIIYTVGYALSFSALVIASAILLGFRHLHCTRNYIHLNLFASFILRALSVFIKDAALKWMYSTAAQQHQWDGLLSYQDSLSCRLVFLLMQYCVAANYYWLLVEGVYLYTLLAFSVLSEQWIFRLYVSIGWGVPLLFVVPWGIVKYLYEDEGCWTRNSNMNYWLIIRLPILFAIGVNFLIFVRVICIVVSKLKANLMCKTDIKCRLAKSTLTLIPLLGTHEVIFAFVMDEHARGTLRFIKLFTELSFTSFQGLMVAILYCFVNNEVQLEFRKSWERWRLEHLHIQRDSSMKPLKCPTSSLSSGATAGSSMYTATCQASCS
Assay: GLP-1R agonist cAMP stimulation assay (HTRF cAMP)
Details: HEK293 cell line expressing GLP-1 target; HTRF cAMP agonist mode, 30 min at RT
pEC50: −log10 of the molar value.
Documented pEC50 across a set of molecules
quantity_name: pEC50

>>> quantitative_readout("N#Cc1ccc(COc2cccc(C3=CCN(Cc4nc5cc(C(=O)Nc6ccc7c(c6)C6(CC6)C(=O)N7)ccc5n4C[C@@H]4CCO4)CC3)n2)c(F)c1")
9.49
>>> quantitative_readout("C[C@@H](NC(=O)c1ccc2c(c1)nc(CN1CCC(c3cccc(OCc4ccc(Cl)cc4F)n3)CC1)n2C[C@@H]1CCO1)C(=O)N1C[C@@H](O)C[C@@H]1C(=O)O")
8.76
>>> quantitative_readout("CCn1cncc1Cn1c(Cc2c(F)cc(-c3cccc(OCc4ccc(Cl)cn4)n3)cc2F)nc2cc(NC(=O)c3cc(F)c4[nH]nc(C)c4c3)ccc21")
9.80

====

Biological target: GLP-1R (Homo sapiens)
# key: entry, value: Ki
quantity_name: Ki (nM)

>>> quantitative_readout("Cc1cc(NC(=O)c2ccc3c(c2)nc(CN2CCC(c4cccc(OCc5ccc(C#N)cc5F)n4)CC2)n3C[C@@H]2CCO2)cc2cn[nH]c12")
904
>>> quantitative_readout("O=C(Nc1ccc2[nH]c(=O)[nH]c2c1)c1ccc2c(c1)nc(CN1CCC(c3cccc(OCc4ccc(Cl)cc4F)n3)CC1)n2C[C@@H]1CCO1")
950
>>> quantitative_readout("Cc1n[nH]c2ccc(NC(=O)c3ccc4c(c3)nc(CN3CC=C(c5cccc(OCc6ccc(Cl)cn6)n5)CC3)n4C[C@@H]3CCO3)cc12")
956
>>> quantitative_readout("Cc1n[nH]c2c(F)cc(C(=O)Nc3ccc4c(c3)nc(CN3CC=C(c5cccc(OCc6ccc(Cl)cc6F)n5)CC3)n4C[C@@H]3CCO3)cc12")
87.9
>>> quantitative_readout("O=C(NCC(=O)N1C[C@H](O)C[C@H]1C(=O)O)c1ccc2c(c1)nc(CN1CCC(c3cccc(OCc4ccc(Cl)cc4F)n3)CC1)n2C[C@@H]1CCO1")
165
>>> quantitative_readout("Cc1n[nH]c2c(F)cc(C(=O)Nc3ccc4c(c3)nc(Cc3c(F)cc(-c5cccc6c5O[C@@](C)(c5ccc(Cl)cn5)O6)cc3F)n4CC3CCO3)cc12 (stereo partly drawn)")
69.9
>>> quantitative_readout("O=C(Nc1ccc2[nH]c(=O)[nH]c2c1)c1ccc2c(c1)nc(CN1CC=C(c3cccc(OCc4ccc(Cl)cc4F)n3)CC1)n2C[C@@H]1CCO1")
841
>>> quantitative_readout("O=C(Nc1ccc2c(c1)nc(CN1CC=C(c3cccc(OCc4ccc(Cl)cn4)n3)CC1)n2C[C@@H]1CCO1)c1ccc2[nH]c(=O)[nH]c2c1")
82.4
>>> quantitative_readout("O=C(Nc1ccc2c(c1)nc(CN1CC=C(c3cccc(OCc4ccc(Cl)cc4F)n3)CC1)n2C[C@@H]1CCO1)c1ccc2[nH]c(=O)[nH]c2c1")
1000
>>> quantitative_readout("Cc1n[nH]c2ccc(C(=O)Nc3ccc4c(c3)nc(CN3CC=C(c5cccc(OCc6ccc(Cl)cn6)n5)CC3)n4C[C@@H]3CCO3)cc12")
70.3
>>> quantitative_readout("Cc1n[nH]c2c(C)cc(C(=O)Nc3ccc4c(c3)nc(CN3CCC(c5cccc6c5OC(C)(c5ccc(Cl)cc5F)O6)CC3)n4CC3CCO3)cc12 (stereo not drawn)")
95.5
>>> quantitative_readout("Cc1n[nH]c2c(F)cc(C(=O)Nc3ccc4c(c3)nc(C3CC35CCN(c3cccc(OCc6ccc(Cl)cc6F)n3)CC5)n4CC3CCO3)cc12 (stereo not drawn)")
110

====

Target: GLP-1R (Homo sapiens)
Decide using IC50 alone. Strictly below 200 nM: true. Equal to or above 200 nM: false.

>>> label("Cc1n[nH]c2c(F)cc(NC(=O)c3ccc4c(c3)nc(CN3CCC(c5cccc6c5OC(C)(c5ccc(C#N)cc5F)O6)CC3)n4CC3CCO3)cc12 (centres unmarked)")
"false"
>>> label("Cc1n[nH]c2c(C)cc(C(=O)Nc3ccc4c(c3)nc(CN3CC=C(c5cccc(OCc6ccc(C#N)cc6F)n5)CC3)n4C[C@@H]3CCO3)cc12")
"true"
>>> label("Cc1n[nH]c2c(F)cc(C(=O)Nc3ccc4c(c3)nc(CN3CC=C(c5cccc(OCc6ccc(Cl)cc6F)n5)CC3)n4C[C@@H]3CCO3)cc12")
"true"
>>> label("Cc1n[nH]c2ccc(NC(=O)c3ccc4c(c3)nc(CN3CC=C(c5cccc(OCc6ccc(Cl)cc6F)n5)CC3)n4C[C@@H]3CCO3)cc12")
"false"
>>> label("Cc1n[nH]c2c(F)cc(C(=O)Nc3ccc4c(c3)nc(Cc3c(F)cc(-c5cccc6c5O[C@](C)(c5ccc(Cl)cn5)O6)cc3F)n4CC3CCO3)cc12 (some centres unmarked)")
"false"
>>> label("Cc1n[nH]c2c(F)cc(C(=O)Nc3ccc4c(c3)nc(Cc3c(F)cc(-c5cccc6c5O[C@@](C)(c5ccc(Cl)cn5)O6)cc3F)n4CC3CCO3)cc12 (some centres unmarked)")
"true"
>>> label("Cc1n[nH]c2c(C)cc(C(=O)Nc3ccc4c(c3)nc(CN3CC=C(c5cccc6c5O[C@](C)(c5ccc(Cl)cc5F)O6)CC3)n4CC3CCO3)cc12 (some centres unmarked)")
"true"
>>> label("Cc1n[nH]c2c(C)cc(NC(=O)c3ccc4c(c3)nc(CN3CC=C(c5cccc(OCc6ccc(Cl)cc6F)n5)CC3)n4C[C@@H]3CCO3)cc12")
"false"
>>> label("CCn1cncc1Cn1c(Cc2c(F)cc(-c3cccc(OCc4ccc(Cl)cn4)n3)cc2F)nc2cc(NC(=O)c3cc(F)c4[nH]nc(C)c4c3)ccc21")
"true"
>>> label("Cc1n[nH]c2c(C)cc(NC(=O)c3ccc4c(c3)nc(CN3CC=C(c5cccc6c5O[C@@](C)(c5ccc(Cl)cn5)O6)CC3)n4CC3CCO3)cc12 (some centres unmarked)")
"false"
>>> label("Cc1n[nH]c2ccc(NC(=O)c3ccc4c(c3)nc(CN3CC=C(c5cccc6c5O[C@@](C)(c5ccc(Cl)cc5F)O6)CC3)n4C[C@@H]3CCO3)cc12")
"false"
>>> label("O=C(Nc1cc(F)c2c(c1)C1(CC1)C(=O)N2)c1ccc2c(c1)nc(CN1CC=C(c3cccc(OCc4ccc(Cl)cc4F)n3)CC1)n2C[C@@H]1CCO1")
"false"
>>> label("CCn1cncc1Cn1c(Cc2c(F)cc(-c3cccc4c3O[C@@](C)(c3ccc(Cl)cn3)O4)cc2F)nc2cc(NC(=O)c3cc(F)c4[nH]nc(C)c4c3)ccc21")
"true"
>>> label("Cc1n[nH]c2ccc(NC(=O)c3ccc4c(c3)nc(CN3CC=C(c5cccc(OCc6ccc(Cl)cn6)n5)CC3)n4C[C@@H]3CCO3)cc12")
"false"
>>> label("O=C(Nc1ccc2c(c1)nc(CN1CC=C(c3cccc(OCc4ccc(Cl)cc4F)n3)CC1)n2C[C@@H]1CCO1)c1ccc2c(c1)C1(CC1)C(=O)N2")
"true"
>>> label("Cc1n[nH]c2ccc(C(=O)Nc3ccc4c(c3)nc(CN3CCC(c5cccc6c5OC(C)(c5ccc(Cl)cc5F)O6)CC3)n4CC3CCO3)cc12 (centres unmarked)")
"true"
>>> label("O=C(NCC(=O)N1CC(F)(F)C[C@H]1C(=O)O)c1ccc2c(c1)nc(CN1CCC(c3cccc(OCc4ccc(Cl)cc4F)n3)CC1)n2C[C@@H]1CCO1")
"false"
>>> label("CCn1cncc1Cn1c(Cc2c(F)cc(-c3cccc(OCc4ccc(Cl)cc4F)n3)cc2F)nc2cc(NC(=O)c3cc(F)c4[nH]nc(C)c4c3)ccc21")
"false"
>>> label("O=C(Nc1ccc2c(c1)nc(CN1CCC(c3cccc(OCc4ccc(Cl)cc4F)n3)CC1)n2C[C@@H]1CCO1)c1ccc2[nH]c(=O)[nH]c2c1")
"true"
>>> label("Cc1n[nH]c2c(F)cc(C(=O)Nc3ccc4c(c3)nc(C3CC35CCN(c3cccc(OCc6ccc(Cl)cc6F)n3)CC5)n4CC3CCO3)cc12 (centres unmarked)")
"true"
>>> label("Cc1n[nH]c2c(C)cc(NC(=O)c3ccc4c(c3)nc(CN3CC=C(c5cccc(OCc6ccc(C#N)c7cc(Cl)oc67)n5)CC3)n4C[C@@H]3CCO3)cc12")
"false"
>>> label("Cc1n[nH]c2ccc(NC(=O)c3ccc4c(c3)nc(CN3CCC(c5cccc(OCc6ccc(Cl)cc6F)n5)CC3)n4C[C@@H]3CCO3)cc12")
"false"
>>> label("Cc1cc(NC(=O)c2ccc3c(c2)nc(CN2CCC(c4cccc(OCc5ccc(C#N)cc5F)n4)CC2)n3C[C@@H]2CCO2)cc2cn[nH]c12")
"false"
